Target: EGFR (human), P00533 [T790M]
Sequence (P00533 whole entry T790M, looked up): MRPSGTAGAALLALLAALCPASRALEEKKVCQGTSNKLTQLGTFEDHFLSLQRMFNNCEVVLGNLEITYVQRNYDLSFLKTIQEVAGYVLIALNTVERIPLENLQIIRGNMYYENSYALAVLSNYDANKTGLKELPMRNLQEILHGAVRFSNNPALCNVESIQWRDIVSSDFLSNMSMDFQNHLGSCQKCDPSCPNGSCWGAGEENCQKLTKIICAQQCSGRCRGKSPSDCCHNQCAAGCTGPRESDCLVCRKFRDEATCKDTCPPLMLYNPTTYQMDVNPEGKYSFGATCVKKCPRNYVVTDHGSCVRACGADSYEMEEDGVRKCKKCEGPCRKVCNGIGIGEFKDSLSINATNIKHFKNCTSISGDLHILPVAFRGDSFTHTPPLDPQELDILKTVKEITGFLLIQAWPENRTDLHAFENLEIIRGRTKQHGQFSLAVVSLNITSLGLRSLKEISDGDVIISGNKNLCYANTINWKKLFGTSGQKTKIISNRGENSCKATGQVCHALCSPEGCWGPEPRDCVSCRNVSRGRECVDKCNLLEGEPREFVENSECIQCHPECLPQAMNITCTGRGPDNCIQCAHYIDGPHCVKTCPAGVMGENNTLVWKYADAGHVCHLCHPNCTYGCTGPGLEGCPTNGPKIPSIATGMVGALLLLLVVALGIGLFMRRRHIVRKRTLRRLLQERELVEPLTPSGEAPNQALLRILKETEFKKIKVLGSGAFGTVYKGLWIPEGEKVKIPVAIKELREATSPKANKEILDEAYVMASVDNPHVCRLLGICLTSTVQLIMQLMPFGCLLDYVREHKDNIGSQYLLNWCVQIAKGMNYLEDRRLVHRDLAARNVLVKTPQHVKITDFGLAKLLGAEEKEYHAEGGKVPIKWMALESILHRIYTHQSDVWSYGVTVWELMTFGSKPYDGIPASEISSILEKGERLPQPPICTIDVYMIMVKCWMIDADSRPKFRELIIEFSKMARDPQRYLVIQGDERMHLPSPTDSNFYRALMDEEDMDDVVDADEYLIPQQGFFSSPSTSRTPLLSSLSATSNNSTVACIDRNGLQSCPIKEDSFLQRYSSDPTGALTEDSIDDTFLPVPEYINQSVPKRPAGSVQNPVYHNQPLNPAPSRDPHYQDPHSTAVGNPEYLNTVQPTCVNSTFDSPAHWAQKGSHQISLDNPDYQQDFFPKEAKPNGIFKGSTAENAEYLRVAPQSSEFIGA
pIC50: −log10 of the molar value.
measurement.type: pIC50

smiles_notation=COc1cc(N2CCC(N(C)C)CC2)ccc1Nc1ncc(Cl)c(Nc2ccccc2C(=O)C(N)=O)n1 measurement_type=pIC50 readout_number=8.12

---

Target: EGFR (Human), P00533 [T790M/L858R]
Sequence (P00533 whole entry T790M/L858R, looked up): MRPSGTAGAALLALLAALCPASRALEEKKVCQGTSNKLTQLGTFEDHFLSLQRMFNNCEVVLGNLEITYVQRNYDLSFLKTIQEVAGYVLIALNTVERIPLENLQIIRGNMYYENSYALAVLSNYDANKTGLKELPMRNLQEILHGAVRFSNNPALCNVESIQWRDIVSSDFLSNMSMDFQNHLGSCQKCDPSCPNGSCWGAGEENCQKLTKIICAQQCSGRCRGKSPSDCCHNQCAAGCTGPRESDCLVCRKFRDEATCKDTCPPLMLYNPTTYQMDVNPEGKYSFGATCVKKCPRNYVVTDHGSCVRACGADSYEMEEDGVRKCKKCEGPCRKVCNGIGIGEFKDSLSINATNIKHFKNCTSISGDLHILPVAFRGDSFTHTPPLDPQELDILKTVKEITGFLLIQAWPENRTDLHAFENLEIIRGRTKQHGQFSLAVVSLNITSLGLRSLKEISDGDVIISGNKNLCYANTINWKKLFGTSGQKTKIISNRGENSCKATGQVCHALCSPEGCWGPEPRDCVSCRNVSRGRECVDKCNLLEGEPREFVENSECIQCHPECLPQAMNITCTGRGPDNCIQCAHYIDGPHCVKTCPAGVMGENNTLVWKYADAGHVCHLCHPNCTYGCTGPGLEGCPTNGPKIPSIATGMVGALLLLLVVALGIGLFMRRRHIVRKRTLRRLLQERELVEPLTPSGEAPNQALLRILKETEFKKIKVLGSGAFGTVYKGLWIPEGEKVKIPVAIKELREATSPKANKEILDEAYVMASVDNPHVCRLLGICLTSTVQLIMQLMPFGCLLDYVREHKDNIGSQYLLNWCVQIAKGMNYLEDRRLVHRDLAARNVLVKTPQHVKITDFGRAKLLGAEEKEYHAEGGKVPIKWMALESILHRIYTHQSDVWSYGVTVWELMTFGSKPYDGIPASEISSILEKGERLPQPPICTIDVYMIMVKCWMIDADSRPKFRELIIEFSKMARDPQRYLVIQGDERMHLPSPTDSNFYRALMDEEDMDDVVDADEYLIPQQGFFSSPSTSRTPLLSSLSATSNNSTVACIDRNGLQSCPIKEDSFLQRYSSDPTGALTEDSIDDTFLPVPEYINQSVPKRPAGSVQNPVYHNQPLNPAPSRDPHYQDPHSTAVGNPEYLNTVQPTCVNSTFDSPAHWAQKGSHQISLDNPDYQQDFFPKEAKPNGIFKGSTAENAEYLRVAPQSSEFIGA
Conditions: h1975
pIC50: −log10 of the molar value.
Rule: pIC50 of 7 or more gives 1.0; anything lower gives 0.0.

smiles_notation=C=C(CN1CCOCC1)C(=O)Nc1cccc(Nc2ncc(Cl)c(Nc3ccccc3C(=O)C(=O)N(C)C)n2)c1 assayed_target="EGFR (Human), P00533 [T790M/L858R]" assigned_label=1.0
smiles_notation=CNC(=O)C(=O)c1ccccc1Nc1nc(Nc2ccc(N3CCC(N(C)C)CC3)cc2OC)ncc1Cl assayed_target="EGFR (Human), P00533 [T790M/L858R]" assigned_label=0.0
smiles_notation=COc1cc(N2CCN(C)CC2)ccc1Nc1ncc(Cl)c(Nc2ccccc2C(=O)C(=O)N(C)C)n1 assayed_target="EGFR (Human), P00533 [T790M/L858R]" assigned_label=0.0
smiles_notation=C/C=C/C(=O)Nc1ccc(OC)c(Nc2ncc(Cl)c(Nc3ccccc3C(=O)C(=O)N(C)C)n2)c1 assayed_target="EGFR (Human), P00533 [T790M/L858R]" assigned_label=0.0
smiles_notation=C=CC(=O)Nc1cc(Nc2ncc(Cl)c(Nc3ccccc3C(=O)C(=O)N(C)C)n2)c(F)cc1OC assayed_target="EGFR (Human), P00533 [T790M/L858R]" assigned_label=0.0
smiles_notation=C=CC(=O)Nc1cc(Nc2ncc(Cl)c(Nc3ccccc3C(=O)C(=O)N(C)C)n2)ccc1OC assayed_target="EGFR (Human), P00533 [T790M/L858R]" assigned_label=1.0
smiles_notation=C=CC(=O)Nc1cccc(Nc2ncc(C(F)(F)F)c(Nc3ccccc3C(=O)C(N)=O)n2)c1 assayed_target="EGFR (Human), P00533 [T790M/L858R]" assigned_label=0.0
smiles_notation=C=CC(=O)Nc1ccc(OC)c(Nc2ncc(Cl)c(Nc3ccccc3C(=O)C(=O)N(C)C)n2)c1 assayed_target="EGFR (Human), P00533 [T790M/L858R]" assigned_label=1.0

---

Molecular target: EGFR (Human), P00533 [T790M/L858R]
pIC50: −log10 of the molar value.
measurement.type: pIC50

smiles_notation=COc1cc(N2CCC(N(C)C)CC2)ccc1Nc1ncc(Cl)c(Nc2ccccc2C(=O)C(N)=O)n1 readout_number=8.39

---

pIC50: −log10 of the molar value.
Record type: pIC50 measurement. Applies to: EGFR (Human), P00533 [Assessment of HCC827 (EGFR Del) Cell Proliferation]
measurement.type: pIC50

smiles_notation=COc1cc(N2CCC(N(C)C)CC2)ccc1Nc1ncc(Cl)c(Nc2ccccc2C(=O)C(N)=O)n1 assayed_target="EGFR (Human), P00533 [Assessment of HCC827 (EGFR Del) Cell Proliferation]" readout_number=5.58
smiles_notation=C=C(CN(C)CCN(C)C)C(=O)Nc1ccc(OC)c(Nc2ncc(Cl)c(Nc3ccccc3C(=O)C(=O)N(C)C)n2)c1 assayed_target="EGFR (Human), P00533 [Assessment of HCC827 (EGFR Del) Cell Proliferation]" readout_number=7.70
smiles_notation=C=CC(=O)Nc1ccc(OC)c(Nc2ncc(Cl)c(Nc3ccccc3C(=O)C(=O)N(C)C)n2)c1 assayed_target="EGFR (Human), P00533 [Assessment of HCC827 (EGFR Del) Cell Proliferation]" readout_number=7.70
smiles_notation=C=CC(=O)Nc1cccc(Nc2ncc(Cl)c(Nc3ccccc3C(=O)C(=O)NC)n2)c1 assayed_target="EGFR (Human), P00533 [Assessment of HCC827 (EGFR Del) Cell Proliferation]" readout_number=6.57
smiles_notation=COc1cc(N2CCC(N(C)C)CC2)ccc1Nc1ncc(Cl)c(Nc2ccccc2C(=O)C(=O)N(C)C)n1 assayed_target="EGFR (Human), P00533 [Assessment of HCC827 (EGFR Del) Cell Proliferation]" readout_number=5.91
smiles_notation=COc1cc(N2CCN(C)CC2)ccc1Nc1ncc(Cl)c(Nc2ccccc2C(=O)C(=O)N(C)C)n1 assayed_target="EGFR (Human), P00533 [Assessment of HCC827 (EGFR Del) Cell Proliferation]" readout_number=5.79
smiles_notation=C=CC(=O)Nc1cccc(Nc2ncc(C(F)(F)F)c(Nc3ccccc3C(=O)C(N)=O)n2)c1 assayed_target="EGFR (Human), P00533 [Assessment of HCC827 (EGFR Del) Cell Proliferation]" readout_number=6.28
smiles_notation=COc1cc(Nc2ncc(Cl)c(Nc3ccccc3C(=O)C(=O)N(C)C)n2)ccc1N1CCC(N(C)C)CC1 assayed_target="EGFR (Human), P00533 [Assessment of HCC827 (EGFR Del) Cell Proliferation]" readout_number=7.70
